Test target: human JAK1 (a.a. 837-1142)
Test name: In vitro JAK kinase assay (HTRF, phosphorylation of a biotinylated peptide), JAK1
Assay type: biochemical
Measurement setup: measured at 1 mM ATP; JAK2 IC50 / JAK1 IC50
Parameter: IC50 Ratio JAK2/JAK1

[in] Quick one: give measured IC50 Ratio JAK2/JAK1 for Cc1nc(C(F)(F)F)ccc1NC(=O)N1CCC(N2CC(CC#N)(n3ccc(-c4ncnc5[nH]ccc45)c3)C2)CC1
[out] 5.7

P. N#CCC1(n2cc(-c3ncnc4[nH]ccc34)cn2)CN(C2CCN(C(=O)c3cc4c(C(F)(F)F)cccc4s3)CC2)C1
Q. N#CCC1(n2cc(-c3ncnc4[nH]ccc34)cn2)CN(C2CCN(Cc3ccnc(C(F)(F)F)c3F)CC2)C1
[in] Endpoint returns the identifier whose IC50 Ratio JAK2/JAK1 is numerically larger, either P or Q . Identify your pick by its label.
[out] Q

----------
Test target: human JAK1 (a.a. 837-1142)
Test name: In vitro JAK kinase assay (HTRF, phosphorylation of a biotinylated peptide), JAK1
Format: biochemical
Measurement setup: measured at 1 mM ATP; JAK2 IC50 / JAK1 IC50
Experimental: Compounds herein were tested for inhibitory activity of JAK targets according to the following in vitro assay described in Park et al., Analytical Biochemistry 1999, 269, 94-104. […] The phosphorylated peptide was detected by homogenous time resolved fluorescence (HTRF). […] Binding to the Europium labeled antibody took place for 40 minutes and HTRF signal was measured on a Fusion plate reader (Perkin Elmer, Boston, Mass.).
Parameter: IC50 Ratio JAK2/JAK1

Here are 5 compounds together with their reported answers.
[in] Quick one: give measured IC50 Ratio JAK2/JAK1 for COc1c(F)c(F)cc(C(=O)N2CCC(N3CC(CC#N)(n4cc(-c5ncnc6[nH]ccc56)cn4)C3)CC2)c1F
[out] 4.4

[in] Quick one: give measured IC50 Ratio JAK2/JAK1 for N#CCC1(n2cc(-c3ncnc4[nH]ccc34)cn2)CN(C2CCN(C(=O)c3ccc(-c4ccc5nccn5c4)c(F)c3)CC2)C1
[out] 7.1

[in] Quick one: give measured IC50 Ratio JAK2/JAK1 for N#CCC1(n2ccc(-c3ncnc4[nH]ccc34)c2)CN(C2CCN(C(=O)c3ccc(C(F)(F)F)cc3F)CC2)C1
[out] 6.5

[in] Quick one: give measured IC50 Ratio JAK2/JAK1 for CS(=O)(=O)N1CCC(N2CC(CC#N)(n3ccc(-c4ncnc5[nH]ccc45)c3)C2)CC1
[out] 3.2

[in] Quick one: give measured IC50 Ratio JAK2/JAK1 for COc1c(Br)cc(C(=O)N2CCC(N3CC(CC#N)(n4cc(-c5ncnc6[nH]ccc56)cn4)C3)CC2)cc1Br
[out] 6.9

1. N#CCC1(n2cc(-c3ncnc4[nH]ccc34)cn2)CN(C2CCN(Cc3cc(C(F)(F)F)ccc3Cl)CC2)C1
2. COc1cc(OC)cc(C(=O)N2CCC(N3CC(CC#N)(n4cc(-c5ncnc6[nH]ccc56)cn4)C3)CC2)c1
[in] Given the two records 1 and 2 , choose the one whose IC50 Ratio JAK2/JAK1 value is lower. Identify your pick by its label.
[out] 2

I. N#CCC1(n2ccc(-c3ncnc4[nH]ccc34)c2)CN(C2CCN(C(=O)c3cccc(OC(F)(F)F)c3F)CC2)C1
II. N#CCC1(n2cc(-c3ncnc4[nH]ccc34)cn2)CN(C2CCN(S(=O)(=O)c3ccccc3C#N)CC2)C1
III. N#CCC1(n2cc(-c3ncnc4[nH]ccc34)cn2)CN(C2CCN(C(=O)Nc3cscc3Br)CC2)C1
IV. COC(=O)c1ccccc1NC(=O)N1CCC(N2CC(CC#N)(n3cc(-c4ncnc5[nH]ccc45)cn3)C2)CC1
[in] Order the entries by their reported IC50 Ratio JAK2/JAK1, beginning at the minimum. Return the labels ranked in the requested order, please.
[out] IV, II, I, III

----------
Test target: human JAK1 (a.a. 837-1142)
Test name: In vitro JAK kinase assay (HTRF, phosphorylation of a biotinylated peptide), JAK1
Assay type: biochemical
Measurement setup: measured at 1 mM ATP; JAK2 IC50 / JAK1 IC50
Parameter: IC50 Ratio JAK2/JAK1

[in] Quick one: give measured IC50 Ratio JAK2/JAK1 for N#CCC1(n2cc(-c3ccnc4[nH]ccc34)cn2)CN(C2CCN(C(=O)Nc3ccncc3C(F)(F)F)CC2)C1
[out] 8.8

A. N#CCC1(n2cc(-c3ncnc4[nH]ccc34)cn2)CN(C2CCN(C(=O)c3cnc4ccccc4c3)CC2)C1
B. Cn1nccc1S(=O)(=O)N1CCC(N2CC(CC#N)(n3cc(-c4ncnc5[nH]ccc45)cn3)C2)CC1
[in] Endpoint returns the identifier whose IC50 Ratio JAK2/JAK1 is numerically larger, either A or B . Identify your pick by its label.
[out] B

----------
Test target: human JAK1 (a.a. 837-1142)
Test name: In vitro JAK kinase assay (HTRF, phosphorylation of a biotinylated peptide), JAK1
Assay type: biochemical
Measurement setup: measured at 1 mM ATP; JAK2 IC50 / JAK1 IC50
Parameter: IC50 Ratio JAK2/JAK1

Here are 3 compounds together with their reported answers.
[in] Quick one: give measured IC50 Ratio JAK2/JAK1 for Cc1cc(C)c(CC(=O)N2CCC(N3CC(CC#N)(n4cc(-c5ncnc6[nH]ccc56)cn4)C3)CC2)c(C)c1
[out] 4.2

[in] Quick one: give measured IC50 Ratio JAK2/JAK1 for N#CCC1(n2cc(-c3c(F)cnc4[nH]ccc34)cn2)CN(C2CCN(C(=O)Nc3cnccc3C(F)(F)F)CC2)C1
[out] 6.7

[in] Quick one: give measured IC50 Ratio JAK2/JAK1 for CN(C)c1ccc(S(=O)(=O)N2CCC(N3CC(CC#N)(n4cc(-c5ncnc6[nH]ccc56)cn4)C3)CC2)cc1C#N
[out] 4.7

a. N#CCC1(n2cc(-c3ncnc4[nH]ccc34)cn2)CN(C2CCN(C(=O)c3c(F)cc(C#N)cc3F)CC2)C1
b. N#CCC1(n2cc(-c3ncnc4[nH]ccc34)cn2)CN(C2CCN(C(=O)c3cccc(OC(F)(F)F)c3)CC2)C1
c. CC(C)COC(=O)N1CCC(N2CC(CC#N)(n3cc(-c4ncnc5[nH]ccc45)cn3)C2)CC1
[in] Sort by IC50 Ratio JAK2/JAK1, descending. Return the labels ranked in the requested order, please.
[out] c, a, b

----------
Test target: human JAK1 (a.a. 837-1142)
Test name: In vitro JAK kinase assay (HTRF, phosphorylation of a biotinylated peptide), JAK1
Format: biochemical
Measurement setup: measured at 1 mM ATP; JAK2 IC50 / JAK1 IC50
Parameter: IC50 Ratio JAK2/JAK1

[in] Quick one: give measured IC50 Ratio JAK2/JAK1 for N#CCC1(n2cc(-c3ncnc4[nH]ccc34)cn2)CN(C2CCN(C(=O)Nc3cccc(C(F)(F)F)c3)CC2)C1 [Example 166]
[out] 5.5

[in] Quick one: give measured IC50 Ratio JAK2/JAK1 for N#CCC1(n2cc(-c3ncnc4[nH]ccc34)cn2)CN(C2CCN(C(=O)Cc3c(Cl)cccc3Cl)CC2)C1 [Example 112]
[out] 8.2

I. N#CCC1(n2cc(-c3c(C#N)cnc4[nH]ccc34)cn2)CN(C2CCN(C(=O)c3cc(C#N)cc(C#N)c3)CC2)C1 [Example 338]
II. N#CCC1(n2cc(-c3ncnc4[nH]ccc34)cn2)CN(C2CCN(C(=O)c3cc(F)cc(F)c3)CC2)C1 [Example 3]
III. Cc1cc(C(=O)N2CCC(N3CC(CC#N)(n4cc(-c5ncnc6[nH]ccc56)cn4)C3)CC2)cs1 [Example 73]
[in] Sort by IC50 Ratio JAK2/JAK1, descending. Return the labels ranked in the requested order, please.
[out] II, I, III

----------
Test target: human JAK1 (a.a. 837-1142)
Test name: In vitro JAK kinase assay (HTRF, phosphorylation of a biotinylated peptide), JAK1
Assay type: biochemical
Measurement setup: measured at 1 mM ATP; JAK2 IC50 / JAK1 IC50
Parameter: IC50 Ratio JAK2/JAK1

P. N#CCC1(n2cc(-c3ncnc4[nH]ccc34)cn2)CN(C2CCN(C(=O)c3ccc(F)cc3F)CC2)C1
Q. N#CCC1(n2cc(-c3c(F)cnc4[nH]ccc34)cn2)CN(C2CCN(C(=O)C3CCC(F)(F)CC3)CC2)C1
[in] Endpoint returns the identifier whose IC50 Ratio JAK2/JAK1 is numerically larger, either P or Q . Identify your pick by its label.
[out] P

I. COc1ccc2nc(Cl)c(CN3CCC(N4CC(CC#N)(n5cc(-c6ncnc7[nH]ccc67)cn5)C4)CC3)cc2c1
II. N#CCC1(n2cc(-c3ncnc4[nH]ccc34)cn2)CN(C2CCN(C(=O)c3ccnc(C(F)(F)F)c3)CC2)C1
[in] Given the two records I and II , choose the one whose IC50 Ratio JAK2/JAK1 value is lower. Identify your pick by its label.
[out] II
